- Test: yeast display, Sf9 membrane polyspecificity reagent, FACS + sequencing; frameworks hold sequencing errors

Residue string: QVQLVKSGGGLVQAGGSLRLSCAASGRTFWGYAMGWYRQAPGKERELVAAISSGGDTTYADSVKGRCTISRDNAKNTVYLQMNSLKPEDTAVYYCAADRWIPVYILGADGYDYWGQGTHVTVSS
polyreactivity (PSR sort gate): low polyreactivity

Residue string: QVQLVESGGGLVQAGGSLRLSCAASGRTFAYYAMGWYRQAPGKERELVAAIDSSGGSTYYADSVKARFTISRDNAKNTVYLQMNSLKPEDTADYYCAASYPYDRYDQGGYGYWGQGTQVTVSS
polyreactivity (PSR sort gate): low polyreactivity

###

- Test: yeast display, Sf9 membrane polyspecificity reagent, FACS + sequencing; frameworks hold sequencing errors
Endpoint name: polyreactivity (PSR sort gate)

Would you please look over these solved cases?
Residue string: QVQLVESGGGLVQAGGSLRLSCAASGSTFWGYAMGWYRQAPGTERELVAAITRNGGGTYYADSVKGRFTISRDNAKNTVYLQMNSLKPEDTAVYYCAATRRAYYLYGGQKMDYWGQGTQVTVSS
Endpoint name: polyreactivity (PSR sort gate)
Result: high polyreactivity
--
Residue string: QVQLVESGGGLVQAGGSLRLSCAASGRIFPLYAMGWYRQAPGKERELGAAISSGGTTYYADSVKGRFTISRDNAKNTVYLQMNSLKPEDTAVYYCARRPAQRWGRFDYWGQGTQVTVSS
Endpoint name: polyreactivity (PSR sort gate)
Result: low polyreactivity
--
Residue string: QVQLVETGGGLVQAGGSLRLSCAASGFIFHPNTMGWYSPAPGKERELVAGISYSGGITYTDSVKGRFTISRDNAKNTVYLQMNSLKPEDTAVYYCSAGDKYHYYWGQGTQVTVSS
Endpoint name: polyreactivity (PSR sort gate)
Result: low polyreactivity
--
Residue string: QVQLVESGGGLVQAGGSLRLSCAASGTIFLVYAMGWYIQAPGKERELVAAITFSGGDTYADSVKGRFTISRDNAKNTVYLQMNSLKPEDTAVYYCNAPWPYYGSVVGQDFDYWGQGTQVTVSS
Endpoint name: polyreactivity (PSR sort gate)
Result: low polyreactivity

Moving on to another sequence below.
For QVQLVESGGGLVQAGGSLRLSCAASGRIFFTNAMGWYTQAPGKERELVAAISKSGARTYYADSVKGRFTISRDNAKNTVYLLMNSLKPEDTAVYYCAADVCVYGYDYWGQGTQVTVSS , what is its reported polyreactivity (PSR sort gate)? high polyreactivity

###

- Test: yeast display, Sf9 membrane polyspecificity reagent, FACS + sequencing; frameworks hold sequencing errors
Endpoint name: polyreactivity (PSR sort gate)

Would you please look over these solved cases?
Residue string: QVQLVESGAGLVKAGGSLRLSCAASGIIFGNYAMGLYRQAPGKEREFVAAISGSGDSTYYADSVKGRFTISRDNAKNTVYLQMNSLKPEVTAVYYCAADWTLVYYHEDYWGQGTQVTVSS
Result: high polyreactivity
--
Residue string: QVQLVESGGGLVQAGGSLRLSCAAWSIFYLNAMGWNRQAPGKERELDAAISSAGSTYYADSVKGRFTISRDNAKNTFYLQMNSLKPEDTAVYYCAAYWYDSPGVTEIWYDYWGQGTQVTVSS
Result: low polyreactivity
--
Residue string: QVQLVESGGGLVQAGGSLRLTCAASGSTFSSYGMGWYRQAPGKERELVASITIRGGSTYYADSVKGRFTISRDNAKNTVYLQMNSLKPEDTAVYYCAADVTNRGTWVIYGYYYWGQGTQVTVSS
Result: low polyreactivity
--
Residue string: QVQLVESGGGLVQAGGSLRLSFAASGRIFQFYGMGWYRQAPGKEREFVAAITRNGGNTYYADSVKGRYTISRDNAKNTVDLQMNSLKPEDTAVYYCAAANPRDHRGANDYWGQGTQVTVSS
Result: high polyreactivity
--
Residue string: QVQLVESGGGLVQAGGSLRLSCAASGRIFRVYAMGWYRQAPGKERELVAAISWSGGRTYYADSVKGRFTISRDNAKNTVYLQMNSLKPEDTAVYYCAAVSCYALGFDYWGQGTQVTVSS
Result: high polyreactivity
--
Residue string: QVQLVESGGGFVQAGGSLRLRCAASGLIFAPYAMGWYRQAPGKEREFVAAITRSDGSTYYADSVKGRFTISRDNAKNTVYLQMNSLKPEDTAVYYCAAEPDTYWYTYDYWGQGSQVTVSS
Result: low polyreactivity

For QVQLVESGGGLVQAGGSLRLSCAASGSIFVRNGMGWYRQAPGKERELVASITSGTITYYADSVKGRFTISRDNAKNTVYLQMNSLKPEDTAVYYCNAGWRSSRMEYWGQGTQVTVSS , what is its reported polyreactivity (PSR sort gate)? high polyreactivity

For QVQLVESGGGLVQAGGSLRLSCAASGRIFGTYAMGWYRQAPGKERELVAAITSSGSTNYADSVKGRFTISRDTAKKTVYLQMNSLKPEDTAVYYCAAVWVVFYYCYTVPVHYEYWGQGTQVTVSS , what is its reported polyreactivity (PSR sort gate)? low polyreactivity

For QVQLVESGGGLVQAGGSLRLSCAASGFIFSRNALGWYRQAPGKERELVAVISTRGGSTYYADSVKGRFTISRDNAKNTVYLQMNSLKPEDTAVYYCAARRTRGYEYWGQGTQVTVSS , what is its reported polyreactivity (PSR sort gate)? high polyreactivity

For QVQLVESGGGIVQAGGSLRLSCAASGSTFQTYVMGWYRQAPGKERELVAAISSGGSTNYADSVKGRFTISRDNAKNTVYLQMNSLKPEDTAVYYCAKRWPYFRRGKDGYWGQGTQVTVSS , what is its reported polyreactivity (PSR sort gate)? low polyreactivity

For QVQLVESGGGLVQARGSLRLSCAASGSIFYGNTMGWYRQAPGKESEFVAAISYGGGGTYYADSVKGRFTISRDNAKNTVYLQMNILKPEDTAVYYCATDDPLYQINEQGMDYWGLGTQVTVSS , what is its reported polyreactivity (PSR sort gate)? low polyreactivity

For QVQLVESGGGLVQAGGSLRLSCAASGFIFGRYAMGWYRQAPGKERELVAGISSRGGRTYYADSVKGRFTISRDTAKNPVFLQINSLKPEDTAVYYCGAAGLTDYVRYDYWGQGTQVTVSS , what is its reported polyreactivity (PSR sort gate)? high polyreactivity

For QVQLVESGGGLVQAGGSLRLSCAASGFTFSYNAMGWYRPAPGKERELVAVITKSGGSTYYADSVKGRFTISRDNAKNTVYLQMNSLKPEDTAVYYCNRQIKKLLTTHYYWGQGTQVTVSS , what is its reported polyreactivity (PSR sort gate)? high polyreactivity
